For each record, write down the corresponding CC50 at 24 h.
# Assay Method Text: Cytotoxicity against African green monkey CV1 cells assessed as reduction in cell viability preincubated for 4 hrs measured after 24 hrs by MTT assay relative to control
# Format: cell-based, CV-1
# Measurement Context: chlorocebus aethiops

For orientation, consider the following solved cases.
# Compound, CC50 at 24 h
data = [
    ("CC1CCN(CC(=O)NN2C(=O)c3cccc4cccc(c34)C2=O)CC1", "> 100 µM"),
    ("CCN(CC)CCNC(=O)Cn1c2ccccc2c2nc3ccccc3nc21", "> 100 µM"),
]

Required: CC50 at 24 h, one value per compound below.
1. CCN(CC)CCCNCCn1c2ccccc2c2nc3ccccc3nc21
2. CN(C)CCCNCCn1c2ccccc2c2nc3ccccc3nc21
3. CN(C)CCCNC(=O)Cn1c2ccccc2c2nc3ccccc3nc21
4. CN1CCN(CC(=O)NN2C(=O)c3cccc4cccc(c34)C2=O)CC1
5. CN(CCO)CCN1C(=O)c2cccc3cccc(c23)C1=O
6. CC(O)N(C)CCn1c2ccccc2c2nc3ccccc3nc21 (stereo unspecified)

Result:
1. 30 to 50 µM
2. 50 to 92 µM
3. 100 to 500 µM
4. 100 µM
5. > 100 µM
6. 100 µM

Give CC50 at 24 h for each listed item.
1. CCCCN(CCO)CCN1C(=O)c2cccc3cccc(c23)C1=O
2. CN(C)CCNC(=O)Cn1c2ccccc2c2nc3ccccc3nc21
3. CN1CCN(CCn2c3ccccc3c3nc4ccccc4nc32)CC1

Result:
1: > 100 µM; 2: > 100 µM; 3: 50 µM
